Origin of the recorded values: patent US20240415819A1

Test system: HT-29 cells
Assay: CellTiter-Glo luminescent cell viability assay with HT-29 cells (72h incubation)
Type: cell-based, human
Conditions: Homo sapiens, HT-29, HT29 cells, read-out: CTG HT29
pIC50: −log10 of the molar value.
Outcome measure: pIC50

Use the examples below as a reference point.
Compound: CC(=O)N[C@H]1CC(=O)N2CCC(C2)Oc2ccc(C)c(c2)CNC(=O)[C@H](CCc2ccccc2)NC1=O (stereo partly shown) [Compound 261]
pIC50: 6.30 to 7.00
//
Compound: CC(=O)c1ccc(CC(=O)N[C@H]2CC(=O)N3CCCC(CCOc4ccc(C)c(c4)CNC(=O)[C@H](CCc4ccccc4)NC2=O)C3)cc1 (stereo partly shown) [Compound 341]
pIC50: > 7.00
//
Compound: Cc1ccc2cc1CNC(=O)[C@H](CCc1ccccc1)NC(=O)[C@@H](NC(=O)[C@@H](N)Cc1ccccc1)CC(=O)N1CCCC(CCO2)C1 (stereo partly shown) [Compound 179]
pIC50: > 7.00
//
Compound: CC(=O)N[C@H]1CCCC(=O)N2CC3CC(Oc4ccc(C)c(c4)CNC(=O)[C@H](CCc4ccccc4)NC1=O)C3C2 (stereo partly shown) [Compound 191]
pIC50: 5.30 to 6.00
//
Compound: Cc1ccc2cc1CNC(=O)[C@H](CCc1ccccc1)NC(=O)[C@@H](NC(=O)OCc1ccccc1)CCCCC(=O)N1CC(CCO2)C1 [Compound 353]
pIC50: > 7.00

Query: Would you kindly share the measured pIC50 for Cc1ccc2cc1CNC(=O)[C@H](CCc1ccccc1)NC(=O)[C@@H](Nc1nc3ccccc3[nH]1)CC(=O)N1CCCC(CCO2)C1 (stereo partly shown) [Compound 45] ?
Response: 6.30 to 7.00

* * *

Tested on: hPMBC
Assay: Chymotrypsin-like ProteasomeGlo assay in hPBMC
Format: cell-based
Settings: Homo sapiens; read-out: Pglo hPBMC
Outcome measure: IC50

// worked examples, IC50 included
Compound: CCC(C(=O)N[C@H]1CC(=O)N2CCCC(CCOc3ccc(C)c(c3)CNC(=O)[C@H](CCc3ccccc3)NC1=O)C2)c1ccc(OC)c(OC)c1 (stereo partly drawn)
Study target: hPMBC
IC50: < 100 nM
--
Compound: CC(=O)N[C@H]1CC(=O)N2CCCC(CCOc3ccc(C)c(c3)CNC(=O)C(c3cnn(CCOCCOCCOCCN)c3)NC1=O)C2 (stereo partly drawn)
Study target: hPMBC
IC50: 100 to 500 nM
--
Compound: Cc1ccc2cc1CNC(=O)[C@H](CCc1ccccc1)NC(=O)[C@@H](NC(=O)C(C)(CO)CO)CC(=O)N1CCCC(CCO2)C1 (stereo partly drawn)
Study target: hPMBC
IC50: < 100 nM
--
Compound: Cc1ccc2cc1CNC(=O)[C@H](CCc1ccccc1)NC(=O)[C@@H](NC(=O)CN1CCCC1)CC(=O)N1CCCC(CCO2)C1 (stereo partly drawn)
Study target: hPMBC
IC50: < 100 nM
--
Compound: CCOC(C(=O)N[C@H]1CC(=O)N2CCCC(CCOc3ccc(C)c(c3)CNC(=O)[C@H](CCc3ccccc3)NC1=O)C2)c1ccc(N)cc1 (stereo partly drawn)
Study target: hPMBC
IC50: < 100 nM

Okay, next one:
Query: Recorded IC50 for CC(=O)N[C@H]1CCCC(=O)N2CCOC(CCOc3ccc(C)c(c3)CNC(=O)[C@H](CCc3ccccc3)NC1=O)C2 (stereo partly drawn) with hPMBC, please?
Response: 100 to 500 nM
